Data provenance is PubChem BioAssay (NCI).

- Tested on: HS 578T breast
- EXPERIMENT_NOTES: NCI tumour cell line growth inhibition, 48 h
Where a SMILES comes first, the peptide text is derived from it. The star is where a group is joined. Boc = CC(C)(C)OC(=O)*
Listing of recorded TGI by entry.

>  <COMPOUND>
COC(=O)CCCCN=Cc1c(O)c(O)c(C(C)C)c2cc(C)c(-c3c(C)cc4c(C(C)C)c(O)c(O)c(C=NCCCCC(=O)OC)c4c3O)c(O)c12

>  <UNIT_ABBREV>
µM

>  <COMPARISON_SYMBOL>
>

>  <TGI>
32.5

$$$$
>  <COMPOUND>
COc1cc(OC)cc(-c2ccc(-c3ccc(C(=N)N)o3)o2)c1

>  <UNIT_ABBREV>
µM

>  <COMPARISON_SYMBOL>
=

>  <TGI>
27.3

$$$$
>  <COMPOUND>
CCOP(=O)(OCC)/C(C#N)=C/c1cnc(-c2ccccc2)[nH]1

>  <UNIT_ABBREV>
µM

>  <COMPARISON_SYMBOL>
>

>  <TGI>
100

$$$$
>  <COMPOUND>
COc1cccc(/C=N/NC(=O)c2ccccc2Nc2ccnc(C(F)(F)F)c2)c1O

>  <UNIT_ABBREV>
µM

>  <COMPARISON_SYMBOL>
>

>  <TGI>
46.7

$$$$
>  <COMPOUND>
CCCc1cc(=O)c2c(C)c3[nH]c4ccc(Cl)cc4c3c(C)c2[nH]1

>  <UNIT_ABBREV>
µM

>  <COMPARISON_SYMBOL>
=

>  <TGI>
32.7

$$$$
>  <COMPOUND>
Cc1ccc2c(c1)C(=O)/C(=C/c1ncc([N+](=O)[O-])n1C)O2

>  <UNIT_ABBREV>
µM

>  <COMPARISON_SYMBOL>
>

>  <TGI>
23.2

$$$$
>  <COMPOUND>
CCN1CC2=C(NC(=S)NC2c2ccc(Cl)cc2)/C(=C/c2ccc(Cl)cc2)C1 (stereo not drawn)

>  <UNIT_ABBREV>
µM

>  <COMPARISON_SYMBOL>
>

>  <TGI>
100

$$$$
>  <COMPOUND>
C[C@]12CC[C@H](O)CC1=CC[C@@H]1[C@@H]2CC[C@]2(C)C(c3cccnc3)=CC[C@@H]12

>  <UNIT_ABBREV>
µM

>  <COMPARISON_SYMBOL>
>

>  <TGI>
100

$$$$
>  <COMPOUND>
Nc1cc(CO)cc(Nc2nc3ccc(Cl)cc3c3[nH]c4ccccc4c23)c1

>  <UNIT_ABBREV>
µM

>  <COMPARISON_SYMBOL>
=

>  <TGI>
36.5

$$$$
>  <COMPOUND>
COc1ccc(-c2cc(-c3ccco3)c(C#N)c(=S)n2C2OC(COC(C)=O)C(OC(C)=O)C(OC(C)=O)C2OC(C)=O)cc1 (stereo not drawn)

>  <UNIT_ABBREV>
µM

>  <COMPARISON_SYMBOL>
=

>  <TGI>
21.1

$$$$
>  <COMPOUND>
COC(=O)CNC(=O)C(Cc1ccccc1)NC(=O)C(CCSC)NC(=O)C(Cc1ccc(O)cc1)NC(=O)OC(C)(C)C (stereo not drawn) (Boc-YMFG-OMe; configuration not given here)

>  <UNIT_ABBREV>
µM

>  <COMPARISON_SYMBOL>
>

>  <TGI>
100

$$$$
>  <COMPOUND>
CCc1c(Oc2ccc(C(C)=O)cc2)c2ccccc2[nH]c1=O

>  <UNIT_ABBREV>
µM

>  <COMPARISON_SYMBOL>
=

>  <TGI>
43.6

$$$$
>  <COMPOUND>
Cn1c(N2NC(=O)C(N=Nc3ccc(S(N)(=O)=O)cc3)C2=O)nc(-c2ccco2)c(C#N)c1=O (stereo not drawn)

>  <UNIT_ABBREV>
µM

>  <COMPARISON_SYMBOL>
=

>  <TGI>
38.6

$$$$
